- System: DU-145
- ASSAY NOTES: Cytotoxicity against human DU145 cells by SRB assay
- Format: functional
RESULT TYPE: GI50

A selection of reference data follows.
MOLECULE SMILES	READING
COC(=O)c1cc(OC)c(OC)c(OC)c1-c1ccccc1C=C(C#N)C#N	21.9 µM
COc1c2c(cc(/C=C(\C)[N+](=O)[O-])c1-c1ccccc1/C=C(\C)[N+](=O)[O-])OCO2	5.02 µM
COc1cc(/C=C(\C)[N+](=O)[O-])c(-c2ccccc2/C=C(\C)[N+](=O)[O-])c2c1OCO2	19.8 µM

Proceeding to the next compound to report its GI50.
Query :: Need GI50 of `CCOC(=O)/C(C#N)=C/c1cc2c(cc1-c1c(/C=C(\C#N)C(=O)OCC)cc(OC)c(OC)c1OC)OCO2` , thanks.
Result :: > 22 µM
